# target.entity: the molecule itself
# protocol.description: cross-linking; apo-proteins: 0.02% glutaric aldehyde, 16 h, 20 °C, protein 1 mg/mL, 20 mM Tricine-KOH pH 7.4, 50 mM KCl, 1 mM DTT, 1 mM EDTA; SDS-PAGE, Coomassie, densitometry; self-association
value.type: Monomer 20 kDa, % (%)

protein: human recoverin mutant E169A (natural protein, UniProt P35243 1-200, looked up, myristoylated (fraction of non-myristoylated forms did not exceed 16%), recoverin, human, UniProt P35243, C-terminal 'black' cluster mutant; Parent construct as m1; source: E. coli, expressed and purified similarly to the rWT protein (phenyl-Sepharose, Toyopearl SuperQ-650M)) MGNSKSGALSKEILEELQLNTKFSEEELCSWYQSFLKDCPTGRITQQQFQSIYAKFFPDTDPKAYAQHVFRSFDSNLDGTLDFKEYVIALHMTTAGKTNQKLEWAFSLYDVDGNGTISKNEVLEIVMAIFKMITPEDVKLLPDDENTPEKRAEKIWKYFGKNDDDKLTAKEFIEGTLANKEILRLIQFEPQKVKEKMKNA
value.type: Monomer 20 kDa, %
value.unit: %
measurement: 61.1

protein: human recoverin mutant F35A (natural protein, UniProt P35243 1-200, looked up, myristoylated (fraction of non-myristoylated forms did not exceed 16%), recoverin, human, UniProt P35243, N-terminal 'black' cluster mutant; Parent construct as m1; source: E. coli, expressed and purified similarly to the rWT protein (phenyl-Sepharose, Toyopearl SuperQ-650M)) MGNSKSGALSKEILEELQLNTKFSEEELCSWYQSALKDCPTGRITQQQFQSIYAKFFPDTDPKAYAQHVFRSFDSNLDGTLDFKEYVIALHMTTAGKTNQKLEWAFSLYDVDGNGTISKNEVLEIVMAIFKMITPEDVKLLPDDENTPEKRAEKIWKYFGKNDDDKLTEKEFIEGTLANKEILRLIQFEPQKVKEKMKNA
value.type: Monomer 20 kDa, %
value.unit: %
measurement: 62.8

protein: human recoverin mutant F70A (natural protein, UniProt P35243 1-200, looked up, myristoylated (fraction of non-myristoylated forms did not exceed 16%), recoverin, human, UniProt P35243, N-terminal 'gray' cluster mutant; Parent construct as m1; source: E. coli, expressed and purified similarly to the rWT protein (phenyl-Sepharose, Toyopearl SuperQ-650M)) MGNSKSGALSKEILEELQLNTKFSEEELCSWYQSFLKDCPTGRITQQQFQSIYAKFFPDTDPKAYAQHVARSFDSNLDGTLDFKEYVIALHMTTAGKTNQKLEWAFSLYDVDGNGTISKNEVLEIVMAIFKMITPEDVKLLPDDENTPEKRAEKIWKYFGKNDDDKLTEKEFIEGTLANKEILRLIQFEPQKVKEKMKNA
value.type: Monomer 20 kDa, %
value.unit: %
measurement: 70.7

Origin of measurements: paper PMC6650976
